# MEASUREMENT_NOTES: Human HepG2 cell viability assay in 384 well format
# Type: toxicity, cell-based
# Design: dose 125 nL, time 70.5 hour; concentration not given beside the values
# PROTOCOL_CONDITIONS: HepG2 cells, read-out: Inhibition
cytotoxicity at 70.5 h vs -10%: less than gives Satisfied; not less than gives Not satisfied.

MOLECULE	CLASS
Cc1cccc(NC2CCc3c2[nH]c(=O)n(C2CCCCC2)c3=O)c1C (configuration not stated)	Satisfied
Cc1noc(C)c1CN1C(=O)[C@H]2CC[C@@H]1CN(Cc1nccs1)C2	Not satisfied
NC(=O)CNC(=O)c1ccc(CNCc2ccc(Cl)cc2Cl)cc1	Satisfied
COCC(=O)N1CCC2(CC1)CN(c1ccccn1)CCO2	Not satisfied
CN(CC1CCCC1)C(=O)c1cn(C)nc1-c1cccnc1	Not satisfied
Cc1ccc2cnn(CCC(=O)Nc3c(C)nn(C)c3C)c2c1	Not satisfied
COc1ccccc1C(O)CNC(=O)NCc1csc(C)n1 (configuration not stated)	Not satisfied
COc1cccc(COCC(=O)N2CCCC(c3nncn3C)C2)c1 (configuration not stated)	Satisfied
CCc1nc(CCNc2ccc(S(N)(=O)=O)cc2C#N)cs1	Satisfied
COCCCNC(=O)c1nnsc1-c1ccccc1	Satisfied
NC(=O)N1CCCC(C(=O)NCc2noc(Cc3ccccc3)n2)C1 (configuration not stated)	Satisfied
Oc1cccc(C2CN(c3nnc(C4CC4)s3)CCO2)c1 (configuration not stated)	Not satisfied

---

Each entry below carries its recorded cytotoxicity at 70.5 h.
# MEASUREMENT_NOTES: Human HepG2 cell viability assay in 384 well format
# Assay type: toxicity, cell-based
# Parameters: dose 125 nL, time 70.5 hour; concentration not given beside the values
# PROTOCOL_CONDITIONS: HepG2 cells, read-out: Inhibition
MEASUREMENT_NAME: cytotoxicity at 70.5 h (%)

MOLECULE	NUMBER
Cc1nnc(NC(=O)C(C)n2ncc(Br)c2C)s1 (configuration not stated)	24.3
CCC/N=c1/c(NC(=O)NCCCOC)c(O)oc2ccccc12	29.3
Cc1ccccc1-n1cc(-c2ccnc(N3CCCC(O)C3)n2)cn1 (configuration not stated)	-3.81
O=C(O)COc1ccccc1CN1CCCC1c1cnccn1 (configuration not stated)	-9.06
CCn1cnnc1C1CCN(C(=O)c2cnc(C3CC3)s2)CC1	-10.2
Cn1c(C2CC2)nc2c1CCN(CCS(=O)(=O)c1ccccc1)C2	-14.4
O=C(c1ccc(Cn2ccccc2=O)o1)N1CCSCC1	-8.03
N#Cc1ccccc1C(=O)Nc1cccc(CN2CCC(CO)CC2)c1	-5.53
CC(C)c1nc(C2CCCN2C(=O)c2ccc3nncn3c2)no1 (configuration not stated)	2.23
Cc1ccc(-n2cc(CN3CCOCC(CN(C)C)C3)cn2)cc1C (configuration not stated)	37.2
CC(c1ccncn1)N(C)Cc1cc2cc3c(cc2[nH]c1=O)OCO3 (configuration not stated)	3.45
COCC(=O)NC[C@H]1CC[C@H](c2nnc(-c3cccnc3)o2)CC1	-7.6

---

# MEASUREMENT_NOTES: Human HepG2 cell viability assay in 384 well format
# Format: toxicity, cell-based
# Parameters: dose 125 nL, time 70.5 hour; concentration not given beside the values
# PROTOCOL_CONDITIONS: HepG2 cells, read-out: Inhibition
MEASUREMENT_NAME: cytotoxicity at 70.5 h (%)

COMPOUND	MEASUREMENT_NAME	NUMBER
CN(Cc1cnn(C)c1)C(=O)NCc1cc(Br)cs1	cytotoxicity at 70.5 h	-2.54
CNC(=O)N1C[C@H]2C[C@H](C(=O)NCc3cccnc3)[C@@H](C1)O2	cytotoxicity at 70.5 h	-4.91
CSc1nccn1-c1cccc(C(=O)NCCN2CCS(=O)(=O)CC2)c1	cytotoxicity at 70.5 h	0.708
Cc1cc(C)nc(N2CCC(C(=O)Nc3ccc(C(C)C)cc3)CC2)n1	cytotoxicity at 70.5 h	-2.09
CC(C)[C@H]1CN(Cc2ccncc2)C[C@@H]1NC(=O)C1(C#N)CCOCC1	cytotoxicity at 70.5 h	-1.7
Cc1cnn(CC2CCCCN2CCn2cncn2)c1 (stereo unspecified)	cytotoxicity at 70.5 h	1.52

---

# MEASUREMENT_NOTES: Human HepG2 cell viability assay in 384 well format
# Type: toxicity, cell-based
# Parameters: dose 125 nL, time 70.5 hour; concentration not given beside the values
# PROTOCOL_CONDITIONS: HepG2 cells, read-out: Inhibition

COMPOUND	cytotoxicity at 70.5 h / %
COCCN1CCC2(CC1)CC(c1cccnc1)CO2 (centres undefined)	-4.14
COCC1CN(Cc2ccc(OC)cc2)Cc2nn(C)cc21 (centres undefined)	8.65
O=C(NCC(O)c1cccc(F)c1)c1sccc1OC(F)F (centres undefined)	-3.42
COc1cccc(CN2CCCCC2c2n[nH]cc2-c2cc(C)no2)c1 (centres undefined)	-3.89
Cc1cccc(CN2C(=O)CCC23CCN(Cc2ccoc2)CC3)n1	-0.993
CC(Cn1cccn1)NC(=O)Nc1ccc(N2CCCC2)nc1 (centres undefined)	10.1
Cc1cc(NCc2cccc(C#N)c2)ccc1Br	-7.27
COc1c(CNC2CCCOc3ccccc32)c(C(C)C)nn1C (centres undefined)	-4.69
CC(C(=O)NCc1cccc(N2CC=CC2)c1)n1cccn1 (centres undefined)	-7.35
O=c1c2cccnc2cnn1CC(O)c1cccc(Cl)c1 (centres undefined)	13.3
COCc1nc(CN2CCOC(CN(C)c3cccnn3)C2)cs1 (centres undefined)	2.04
O=C1[C@@H]2C[C@H](O)CCN2C(=O)CN1CCSc1ccccn1	0.109
COc1cc(C)c(C(C)NC(=O)c2cccnc2N(C)C)cc1OC (centres undefined)	-6.36
Cc1nc(CN(C)Cc2cc3c(cc2OC(F)F)OCO3)cs1	-7.91
Cc1ccc(NC(=O)N2CC[C@@H](O)C2)c(-c2nc(C3CC3)no2)c1	-3.95
COC(=O)CNc1cc(C(=O)NCC(F)(F)F)cc(F)c1C	-2.26
OC1(CNCCCN2CCCc3ccccc32)CNCCOC1 (centres undefined)	-13
CN(CC1=CCCN(Cc2cccc(C#N)c2)C1)C(=O)c1ccco1	-12.2
COCCn1cc(CC(=O)Nc2cc(C)n(C)n2)c2ccccc21	-5.22
CCCOC1CCCN(C(=O)Cn2cccc(C(F)(F)F)c2=O)C1 (centres undefined)	-6.8
CC(=O)N1CCCC1(C(=O)N1CCCC1)c1cnccn1 (centres undefined)	0.591
CN(Cc1ccc(C#N)cc1)Cn1nccc1-c1cccnc1	-4
CC(=O)N1CCCCCC1C1CCN(c2ncccc2C#N)CC1 (centres undefined)	-1.45
CC(C)Nc1ncnc2c1CCN(C(=O)CC1CCCC1)CC2	9.38
Cc1cc(NC(=O)CN2CCC(N3CCNC3=O)CC2)on1	-5.65
NC(=O)c1cc(CC2CCCN(Cc3cnccn3)CC2)ncn1 (centres undefined)	-2.22
Cn1cc(C2CC(=O)NC23CCN(C(=O)Cc2ccccn2)CC3)cn1 (centres undefined)	-5.18
Cc1cc(NCCCc2c(C)noc2C)nc(N)n1	-10.4
c1ccc(Cc2nnc(CN3CCc4cncnc4C3)o2)cc1	1.25
COc1ccc2c(c1)C(=O)CC1(CCN(Cc3ccc(F)cc3)CC1)O2	21.7
Cc1cnc(C(=O)N2CCC3(CC2)CC(c2ccncc2)C(=O)N3)cn1 (centres undefined)	-5.53
CN(Cc1ccccc1)C1(C(=O)NC(CO)CO)Cc2ccccc2C1	1.88
O=C(c1cc(C2CC2)on1)N1C[C@@H]2COC[C@]2(COc2cccnc2)C1	-4
O=C([C@H]1CCCO1)N1CCN(CCn2cccn2)c2ncccc2C1	-5.29
COc1ccc(N(C)C(=O)c2ccc(Cl)c(S(C)(=O)=O)c2)cn1	-2.77
Cc1cc(C)cc(C(=O)Nc2cccc(CN3CCCC3C(N)=O)c2)c1 (centres undefined)	6.78
O=C1C(n2nnc(-c3ccsc3)n2)CCN1CC(F)(F)F (centres undefined)	-11.5
CN(C(=O)Cc1ccccc1Cl)C1CCN(c2ccccn2)CC1	2.75
COC(=O)c1cc2c(OC)c(OC)c(OC)cc2[nH]1	-19.4
c1ccc2sc(N3CCN(c4ncnc5c4CCC5)CC3)nc2c1	13.8
Cc1cnc(N2CCC3(CCC(C(=O)NC(C)C)C3)CC2)nc1 (centres undefined)	-7.58
CN1CCOC(C)(C(=O)N2CCN(C3CCCC3)CC2)C1 (centres undefined)	-11.9
CCOCCNc1nc(C2CCCC2)nc2c1cnn2C	0.172
CCc1nc(CN2CCCC(N(C)CCc3cccs3)C2)no1 (centres undefined)	21.1
Cc1cccc(I)c1C(=O)NCc1ncc[nH]1	-10.8
Cc1cnn(C2CN(CC(=O)NCC3(c4ccccc4)CC3)C2)c1	-6.95
CCOC(=O)c1sc2ccsc2c1CN	-3.38
Cc1ncc(C(=O)NCCNc2ncccn2)s1	-2.18
Cc1n[nH]c(C)c1CC(=O)N1CCCN(C)C2(CCN(C)CC2)C1	23.3
